- System: HCT116
- Assay Text: cell viability (CellTiter-Glo) relative to plate median (fraction of plate median); higher = more viable cells
- Assay Context: 5 µM; treatment time 24 h; reporter: TCF4/Wnt
Value Type: cell viability
One number for each entry.

Guide cases for cell viability, answers given:
Name the recorded cell viability of the item CC(C)c1c(C(=O)Nc2ccccc2)c(-c2ccccc2)c(-c2ccc(F)cc2)n1CC[C@@H](O)C[C@@H](O)CC(=O)O in your answer.
1

Name the recorded cell viability of the item CC1(C)C(=O)C=C[C@@]2(C)C1CC(=O)[C@@]1(C)C3=CC(=O)O[C@@H](c4ccoc4)[C@]3(C)CCC12 (stereo not given in full) in your answer.
0.988

Name the recorded cell viability of the item C[C@]12C=CC(=O)C=C1CC[C@@H]1[C@@H]2[C@@H](O)C[C@@]2(C)[C@H]1CC[C@]2(O)C(=O)CO in your answer.
1.09

Name the recorded cell viability of the item CC(C)c1ccc2c(c1)CC[C@H]1[C@](C)(CN)CCC[C@]21C in your answer.
1.07

Name the recorded cell viability of the item O=C(/C=C/c1ccccc1)c1ccc(O[C@@H]2O[C@H](CO)[C@@H](O)[C@H](O)[C@H]2O)cc1O in your answer.
0.83

Batch lookup, cell viability per entry.
1. Nc1nc(=O)c2[nH]c(=O)cnc2[nH]1
2. Nc1nc(N)c2nc(-c3ccccc3)c(N)nc2n1
3. CCCOc1ccc(C(=O)OCCN(CC)CC)cc1N
4. O=c1[nH]cnc2nc[nH]c12
5. CCOc1ccc2nc(S(N)(=O)=O)sc2c1
6. CC(=O)O[C@@H]1CC2C(C)(C)C(=O)C3OC3[C@]2(C)C2CC[C@@]3(C)[C@H](c4ccoc4)OC(=O)C4OC43[C@@]21C (stereo not given in full)

1.06
0.898
0.994
1.04
0.896
1.1

* * *

- Test system: DLD1
- Assay Text: cell viability (CellTiter-Glo) relative to plate median (fraction of plate median); higher = more viable cells
- Assay Context: 5 µM; treatment time 24 h; reporter: 7TFP
Please note: cell viability exactly at 1 is False. Only values below 1 get True.

Does this compound meet the criterion cell viability < 1? COc1ccc2c(c1)O[C@H]1c3ccc(OC)cc3OC[C@@H]21
True

Does this compound meet the criterion cell viability < 1? CC1=C(CC(=O)O)c2cc(F)ccc2/C1=C\c1ccc([S+](C)[O-])cc1 (centres undefined)
True

Next:
Does this compound meet the criterion cell viability < 1? COc1cc2ccc(=O)oc2c(O)c1O
True

Does this compound meet the criterion cell viability < 1? OC(c1cc(C(F)(F)F)nc2c(C(F)(F)F)cccc12)C1CCCCN1 (centres undefined)
True

Does this compound meet the criterion cell viability < 1? CCOC(=O)c1c(C)cc(O)c(C=O)c1O
True

Does this compound meet the criterion cell viability < 1? CC1(C)OC(=O)NC1=O
True

Does this compound meet the criterion cell viability < 1? COC(=O)[C@H](Cc1ccccc1)NC(=O)[C@@H](N)CC(=O)O
True

Does this compound meet the criterion cell viability < 1? CC(=O)O[C@@H]1CC2C(C)(C)[C@H](O)C[C@H](O)[C@@]2(C)C2CC[C@]3(C)C(=CC(=O)O[C@@H]3c3ccoc3)[C@]21C (some centres undefined)
True

Does this compound meet the criterion cell viability < 1? COC(=O)c1c(OC)cc2c(c1C)Oc1c(Cl)c(OC(C)=O)c(Cl)c(C)c1C(=O)O2
True

* * *

Give TCF/Wnt firefly luciferase reporter signal for every item shown.
- System: SW480
- Assay Text: TCF/Wnt firefly luciferase reporter signal relative to plate median (fraction of plate median); higher = higher Wnt reporter signal
- Assay Context: 5 µM; treatment time 24 h; reporter: 7TFP

Guide cases for TCF/Wnt firefly luciferase reporter signal, answers given:
Name the recorded TCF/Wnt firefly luciferase reporter signal of the item COC(=O)C[C@H]1C2(C)CC34OC5(C)O[C@@]6([C@H](OC(C)=O)C(OC(C)=O)[C@]7(C)C(/C(=C(/O)C(C)C)C(=O)O[C@H]7c7ccoc7)[C@@]6(O5)[C@H](OC(C)=O)[C@@]3(O)C2OC(=O)C(C)C)[C@]14C (some centres undefined) in your answer.
1.08

Name the recorded TCF/Wnt firefly luciferase reporter signal of the item NCC(=O)CCC(=O)O in your answer.
1.07

Name the recorded TCF/Wnt firefly luciferase reporter signal of the item CCOC(=O)C(C)(C)Oc1ccc(Cl)cc1 in your answer.
1.04

Name the recorded TCF/Wnt firefly luciferase reporter signal of the item CC(=O)OCC(=O)[C@@]12OC3(CCCC3)O[C@@H]1C[C@H]1[C@@H]3CCC4=CC(=O)C=C[C@]4(C)[C@@]3(F)[C@@H](O)C[C@@]12C in your answer.
0.771

Name the recorded TCF/Wnt firefly luciferase reporter signal of the item O.O.O.O.O=C([O-])CC(O)(CC(=O)[O-])C(=O)[O-].[Li+].[Li+].[Li+] in your answer.
0.725

Name the recorded TCF/Wnt firefly luciferase reporter signal of the item CC1=C(/C=C/C(C)=C/C=C/C(C)=C/C=C/C=C(C)/C=C/C=C(C)/C=C/C2=C(C)C(=O)CCC2(C)C)C(C)(C)CCC1=O [CANTHAXANTHIN (euglenanone)] in your answer.
1.17

Name the recorded TCF/Wnt firefly luciferase reporter signal of the item Nc1nc(N)c2nc(-c3ccccc3)c(N)nc2n1 in your answer.
1.05

Name the recorded TCF/Wnt firefly luciferase reporter signal of the item CCNC(=O)CC[C@H](N)C(=O)O in your answer.
1.05

Batch lookup, TCF/Wnt firefly luciferase reporter signal per entry.
1. CCCC(=O)NCCc1ccccc1 [N-(2-Phenyl)ethylbutyramide]
2. CC1=CC2C(C(C)C)CCC(C)(O)C2CC1 (centres undefined)
3. C[C@]1(O)CC(=O)c2c(ccc3c2C(=O)c2cccc(O)c2C3=O)C1
4. O=c1c(O)cccc2cc(O)c(O)c(O)c12
5. CN(C)CCOC(c1ccc(Cl)cc1)c1ccccn1 (centres undefined)
6. Nc1ccc(C(=O)O)cc1

1. 0.987
2. 0.957
3. 1.01
4. 0.944
5. 0.891
6. 0.965

* * *

Give cell viability for every item shown.
- Test system: DLD1
- Assay Text: cell viability (CellTiter-Glo) relative to plate median (fraction of plate median); higher = more viable cells
- Assay Context: 5 µM; treatment time 24 h; reporter: 7TFP
Numbers only.

Name the recorded cell viability of the item CCOC(=O)[C@@](C)(N)Cc1ccc(O)c(O)c1 in your answer.
1

Name the recorded cell viability of the item NC(=O)c1cccnc1 in your answer.
1.02

Would you kindly look at the next entry?
Name the recorded cell viability of the item c1ccc2c(CC3=NCCN3)cccc2c1 in your answer.
1.11

* * *

- System: DLD1
- Assay Text: cell viability (CellTiter-Glo) relative to plate median (fraction of plate median); higher = more viable cells
- Assay Context: 5 µM; treatment time 24 h; reporter: 7TFP
Value Type: cell viability
Give bare numbers.

Name the recorded cell viability of the item NC(Cn1ccc(=O)c(O)c1)C(=O)O (stereo unspecified) in your answer.
0.987

Name the recorded cell viability of the item C[C@H](CCC(=O)O)[C@H]1CC[C@H]2[C@@H]3[C@H](O)C[C@@H]4C[C@H](O)CC[C@]4(C)[C@H]3CC[C@]12C in your answer.
1

Name the recorded cell viability of the item C=C1[C@H]2CC[C@@]3(C)[C@H](c4ccoc4)OC(=O)C[C@]13O[C@H]1C[C@H](O)C(C)(C)[C@H](CC(=O)OC)[C@]12C [3-DEOXY-3beta-HYDROXYANGOLENSIC ACID METHYL ESTER] in your answer.
1.01

Batch lookup, cell viability per entry.
1. COc1ccc(-c2coc3cc(OC(C)=O)cc(OC(C)=O)c3c2=O)cc1
2. Cc1onc(-c2ccccc2Cl)c1C(=O)N[C@@H]1C(=O)N2[C@@H]1SC(C)(C)[C@@H]2C(=O)O
3. Cc1cc(CC(=O)O)n(C)c1C(=O)c1ccc(Cl)cc1
4. O=C1CN(/N=C/c2ccc(-c3ccc([N+](=O)[O-])cc3)o2)C(=O)N1
5. Cc1ncc(C[n+]2csc(CCO)c2C)c(N)n1
6. CC(C)=CCc1c(O)cc(C)oc1=O
7. O[C@H]1[C@H](O)[C@@H](O)[C@H](O)[C@@H](O)[C@H]1O
8. OCCN1C[C@H](O)[C@@H](O)[C@H](O)[C@H]1CO

[1.01, 1.02, 1.07, 0.999, 0.981, 1.05, 0.938, 0.86]

Batch lookup, cell viability per entry.
1. Cn1c(=O)[nH]c(=O)c2[nH]cnc21
2. Cc1ccc(S(=O)(=O)NC(=O)NN2CC3CCCC3C2)cc1 (stereo unspecified)
3. O=C(O)CCCC[C@@H]1CCSS1 (racemic)
4. CC(=O)Oc1cc(OC(C)=O)c2c(c1)O[C@H](c1ccc(OC(C)=O)c(OC(C)=O)c1)[C@H](OC(C)=O)C2
5. CC(=O)OC[C@@]1(O)C[C@@]23CC[C@@H]4c5ccoc5CC[C@@]4(C)[C@@H]2CC[C@@H]1C3
6. COc1cc(O)c2c(c1)C(=O)c1cc(C)cc(O)c1C2=O
7. COc1cc(C(=O)NCc2ccc(OCCN(C)C)cc2)cc(OC)c1OC
8. CC(C)c1nc(N(C)S(C)(=O)=O)nc(-c2ccc(F)cc2)c1/C=C/[C@@H](O)C[C@@H](O)CC(=O)O

[0.955, 0.95, 1.06, 1, 1.02, 0.973, 0.99, 0.93]
